Tested on: SR leukemia
run.description: NCI-60 one-dose screen, 48 h (100 = growth as untreated, 0 = no growth, -100 = all killed)
experimental.conditions: 10 µM unless noted
Protocol: Growth inhibition of the SR human tumor cell line is measured as a screen for anti-cancer activity. Cells are grown in 96 well plates and exposed to the test compound for 48 hours. Compounds are tested at a single concentration, which is 10^-5 M for most compounds. The reported endpoint is percent growth (GI% or GIPRCNT), where numbers from 0 - 100% represent growth inhibition, and numbers from -100% - 0 represent cell death. For example, a value of 40 represents 60% growth inhibition. […]
About 83,000 compounds went through this panel and 20% of them were active in at least one assay; those are over-represented in the sample as a whole.
quantity.kind: growth (%)
Value expressed in %; do not type the unit.

Query: So what growth did "NCCNC(=O)c1cccc(COc2ccccc2NC(=O)c2cc(Cl)c(Cl)[nH]2)c1" get with SR leukemia?
Response: 8.2

Query: Report growth for "Clc1cccc(/C=N/Nc2nc(N/N=C/c3cccc(Cl)c3)nc(N3CCCCC3)n2)c1" tested on SR leukemia.
Response: 74.6

Query: Any idea what growth came out for "CSc1ccc(/C(=N/N=C(N)N)c2ccc(Cl)cc2)cc1" on SR leukemia?
Response: -15.7

Query: Recorded growth for "Cc1ccc(S(=O)(=O)c2nc(-c3ccc(F)cc3)oc2S(C)(=O)=O)cc1" with SR leukemia, please?
Response: 8.12

Query: Reported growth for SR leukemia, given "Cn1cc(C2=C(c3coc4cc(Br)ccc34)C(=O)NC2=O)c2ccccc21" ?
Response: 29.5

Query: Kindly state the measured growth obtained for CC(Nc1c(C#N)cnc2ccc(-c3cncc(O)c3)cc12)c1ccccc1 (stereo not drawn) with SR leukemia.
Response: 6.19

Query: Under SR leukemia: growth value of "C[C@@H]1OCC2(CCN(c3cnc(C(=O)Nc4cc(F)cc5cccnc45)cn3)CC2)[C@@H]1N" ?
Response: 2.82

Query: Could you share what growth was measured for "CC1=C(C)C(=O)C(Nc2ccc3c(c2)OCCO3)=C(Br)C1=O" , tested on SR leukemia?
Response: 77.6
